Tested on: HT-29 human colon cancer cell line
Experiment: Cytotoxicity assay
Type: cell-based
Conditions: HT-29 cells, two days' incubation, SRB; ED50 > 20 µM considered inactive
quantity-kind: HT-29 ED50

Below, each entry is followed by its recorded HT-29 ED50 result.
{"molecule": "C/C=C1/CN2[C@H]3C[C@@H]1[C@@H](CO)[C@@H]2Cc1c3n(C)c2ccccc12", "experimental-target": "HT-29 human colon cancer cell line", "HT-29 ED50": ">20 µM"}
{"molecule": "C/C=C1/C[N+]2(C)CC[C@@]34C[C@H]5[C@@H]6C[C@H]7c8c(c9ccccc9n8C)C[C@@H]([C@@H]6CO[C@@]5(C)O[C@@]35[C@@H]2C[C@@H]1[C@@H](C(=O)OC)N5c1ccccc14)N7C.[Cl-] (stereo partly shown)", "experimental-target": "HT-29 human colon cancer cell line", "HT-29 ED50": "6.5 µM"}
{"molecule": "COc1ccc([C@@]23Oc4cc(OC)cc(OC)c4[C@]2(O)[C@H](O)[C@H](C(=O)N(C)C)[C@H]3c2ccccc2)cc1 [Rocaglamide, reference compound]", "experimental-target": "HT-29 human colon cancer cell line", "HT-29 ED50": "0.005 µM"}
{"molecule": "CC1=C(C=O)[C@@H]2C[C@H]3c4c(c5ccccc5n4C)C[C@@H]([C@@H]2CO1)N3C", "experimental-target": "HT-29 human colon cancer cell line", "HT-29 ED50": "8.6 µM"}

INPUT: Supply HT-29 ED50 value. Item: `CC(=O)C1=COC[C@@H]2[C@H]1C[C@H]1c3c(c4ccccc4n3C)C[C@@H]2N1C`
OUTPUT: >20 µM

INPUT: Supply reported HT-29 ED50 belonging to this molecule: CC(=O)O[C@H]1C(=O)[C@@]2(C)[C@H]([C@H](OC(=O)c3ccccc3)[C@]3(O)C[C@H](OC(=O)[C@H](O)[C@@H](NC(=O)c4ccccc4)c4ccccc4)C(C)=C1C3(C)C)[C@]1(OC(C)=O)CO[C@@H]1C[C@@H]2O [Paclitaxel, reference compound]
OUTPUT: 0.006 µM

INPUT: Return reported HT-29 ED50. Input molecule: C/C=C1\CN2CCC34CC5C6CC7c8c(c9ccccc9n8C)CC(C6COC5(C)OC35C2CC1C(C(=O)OC)N5c1ccccc14)N7C (stereo not shown)
OUTPUT: 8.0 µM
